- ASSAY_TEXT: Cell viability assay (CellTiter-Glo), HEK293
- Type: cell-based
- CONDITION_NOTES: human, HEK293 cells, 3 days of incubation
Would you kindly list CC50 at 3 days for each of these compounds?

COMPOUND: COc1ccccc1CN(C(=O)c1cc(-c2cc(OC)c(C(N)=O)cc2C(=O)N2Cc3ccccc3C[C@H]2CN2CCOCC2)n(C)c1C)c1ccc(Cl)cc1 [Compound 63]
CC50 at 3 days: 10 to 25 µM
--
COMPOUND: COc1cccc(CN(C(=O)c2cc(-c3cc(C(F)F)c(Cl)cc3C(=O)N3Cc4ccccc4C[C@H]3CN3CCOCC3)n(C)c2C)c2ccc(O)cc2)c1C [Compound 43]
CC50 at 3 days: > 25 µM

# ---- query compound ----
Query block: Query: CC50 at 3 days; subject: COc1cccc(CN(C(=O)c2cc(-c3cc(Cl)ccc3C(=O)N3Cc4ccccc4C[C@H]3CN3CCOCC3)n(C)c2C)c2ccc3[nH]ncc3c2)c1C [Compound 70]
Result block: > 25 µM

====

- ASSAY_TEXT: Cell viability assay (CellTiter-Glo), HEK293
- Assay type: cell-based
- CONDITION_NOTES: human, HEK293 cells, 3 days of incubation
QUANTITY_KIND: CC50 at 3 days

Below: 5 compounds and their reported CC50 at 3 days.
SMILES_TEXT: COc1cccc(CN(C(=O)c2cc(-c3cc(Cl)c(OC(F)F)cc3C(=O)N3Cc4ccccc4C[C@H]3CN3CCOCC3)n(C)c2C)c2ccc(O)cc2)c1C
VALUE: > 25 µM

SMILES_TEXT: COc1cccc(CN(C(=O)c2cc(-c3cc(C(F)F)c(Cl)cc3C(=O)N3Cc4ccccc4C[C@H]3CN3CCOCC3)n(C)c2C)c2ccc(Cl)cc2)c1C
VALUE: > 25 µM

SMILES_TEXT: COc1cccc(CN(C(=O)c2cc(-c3cc(Cl)c(OC(F)F)cc3C(=O)N3Cc4ccccc4C[C@H]3CN3CCOCC3)n(C)c2C)c2ccc(Cl)cc2)c1C
VALUE: > 25 µM

SMILES_TEXT: Cc1c(C(=O)N(Cc2ccccc2C#N)c2ccc(O)cc2)cc(-c2cc(F)c(F)cc2C(=O)N2Cc3ccccc3C[C@H]2CN2CCOCC2)n1C
VALUE: > 25 µM

SMILES_TEXT: COc1cccc(CN(C(=O)c2cc(-c3cc(Cl)ccc3C(=O)N3Cc4ccccc4C[C@H]3CN3CCOCC3)n3c2CCCC3)c2ccc(O)cc2)c1C
VALUE: 10 to 25 µM

Report CC50 at 3 days for every entry below.
1. COc1cccc(CN(C(=O)c2cc(-c3cc(F)ccc3C(=O)N3Cc4ccccc4C[C@H]3CN3CCOCC3)n(C)c2C)c2ccc(O)cc2)c1C
2. COc1cccc(CN(C(=O)c2cc(-c3cc(C#N)ccc3C(=O)N3Cc4ccccc4C[C@H]3CN3CCOCC3)n(C)c2C)c2ccc(O)cc2)c1C

Result block:
1: > 25 µM; 2: > 25 µM

====

Would you kindly list CC50 for each of these compounds?
- Test system: HEK293 cells
- ASSAY_TEXT: Cell viability assay (CellTiter-Glo), HEK293
- Type: cell-based
- CONDITION_NOTES: 3 days of incubation

COMPOUND: COc1cccc(CN(C(=O)c2cc(-c3cc(Cl)c(F)cc3C(=O)N3Cc4ccccc4C[C@H]3CN3CCOCC3)n(C)c2C)c2ccc(C#N)cc2)c1C [Compound 73]
QUANTITY_KIND: CC50
VALUE: 10 to 25 µM

# ---- query compound ----
Query block: Query: CC50; subject: COc1cccc(CN(C(=O)c2cc(-c3cc(Cl)c(F)cc3C(=O)N3Cc4ccccc4C[C@H]3CN3CCOCC3)n(C)c2C)c2ccc(C#N)cc2)c1C [Compound 29]
Result block: > 25 µM
